What follows is a record of IC50 for Androgen receptor (Homo sapiens, UniProt P10275).
assay.metric: IC50 (nM)

compound: CCC1CCN(C)c2cc3[nH]c(=O)cc(C(F)(F)F)c3cc21 (stereo not given)
relational.operator: >
value: 10000
//
compound: Oc1cc(C(F)(F)F)c2cc3c(cc2n1)NCCC3
relational.operator: =
value: 12
//
compound: C[C@@H]1CNc2cc3[nH]c(=O)cc(C(F)(F)F)c3cc2[C@@H]1CCC(F)(F)F
relational.operator: =
value: 63
//
compound: CCCC1CCNc2cc3nc(O)cc(C(F)(F)F)c3cc21 (stereo not given)
relational.operator: >
value: 10000
//
compound: CC(C)C1CCNc2cc3[nH]c(=O)cc(C(F)(F)F)c3cc21 (stereo not given)
relational.operator: >
value: 10000
//
compound: O=c1cc(C(F)(F)F)c2cc3c(cc2[nH]1)NCCC3c1cc(C(F)(F)F)cc(C(F)(F)F)c1 (stereo not given)
relational.operator: =
value: 251
//
compound: CCC1c2cc3c(C(F)(F)F)cc(=O)[nH]c3cc2NC[C@@H]1C (stereo not given in full)
relational.operator: =
value: 2710
//
compound: CCC1CCN(C)c2cc3c(cc21)c(C(F)(F)F)cc(=O)n3C (stereo not given)
relational.operator: =
value: 216
//
compound: Oc1cc(C(F)(F)F)c2cc3c(cc2n1)NC[C@@H]1CCCC[C@H]31
relational.operator: >
value: 10000
//
compound: CC1CCNc2cc3nc(O)cc(C(F)(F)F)c3cc21 (stereo not given)
relational.operator: =
value: 259
//
compound: CCC1(CC)CCNc2cc3nc(O)cc(C(F)(F)F)c3cc21
relational.operator: =
value: 73
//
compound: CCC1CCNc2cc3c(cc21)c(C(F)(F)F)cc(=O)n3C (stereo not given)
relational.operator: =
value: 20
//
compound: O=c1cc(C(F)(F)F)c2cc3c(cc2[nH]1)NC[C@@H]1CCC[C@H]31
relational.operator: >
value: 10000
//
compound: CC(C)C[C@H]1c2cc3c(C(F)(F)F)cc(=O)[nH]c3cc2NC[C@@H]1C (relative stereo)
relational.operator: =
value: 29
//
compound: CC1(C)CCNc2cc3[nH]c(=O)cc(C(F)(F)F)c3cc21
relational.operator: =
value: 16

---

target.under.test: Androgen receptor (Homo sapiens, UniProt P10275)
Sequence (P10275 whole entry): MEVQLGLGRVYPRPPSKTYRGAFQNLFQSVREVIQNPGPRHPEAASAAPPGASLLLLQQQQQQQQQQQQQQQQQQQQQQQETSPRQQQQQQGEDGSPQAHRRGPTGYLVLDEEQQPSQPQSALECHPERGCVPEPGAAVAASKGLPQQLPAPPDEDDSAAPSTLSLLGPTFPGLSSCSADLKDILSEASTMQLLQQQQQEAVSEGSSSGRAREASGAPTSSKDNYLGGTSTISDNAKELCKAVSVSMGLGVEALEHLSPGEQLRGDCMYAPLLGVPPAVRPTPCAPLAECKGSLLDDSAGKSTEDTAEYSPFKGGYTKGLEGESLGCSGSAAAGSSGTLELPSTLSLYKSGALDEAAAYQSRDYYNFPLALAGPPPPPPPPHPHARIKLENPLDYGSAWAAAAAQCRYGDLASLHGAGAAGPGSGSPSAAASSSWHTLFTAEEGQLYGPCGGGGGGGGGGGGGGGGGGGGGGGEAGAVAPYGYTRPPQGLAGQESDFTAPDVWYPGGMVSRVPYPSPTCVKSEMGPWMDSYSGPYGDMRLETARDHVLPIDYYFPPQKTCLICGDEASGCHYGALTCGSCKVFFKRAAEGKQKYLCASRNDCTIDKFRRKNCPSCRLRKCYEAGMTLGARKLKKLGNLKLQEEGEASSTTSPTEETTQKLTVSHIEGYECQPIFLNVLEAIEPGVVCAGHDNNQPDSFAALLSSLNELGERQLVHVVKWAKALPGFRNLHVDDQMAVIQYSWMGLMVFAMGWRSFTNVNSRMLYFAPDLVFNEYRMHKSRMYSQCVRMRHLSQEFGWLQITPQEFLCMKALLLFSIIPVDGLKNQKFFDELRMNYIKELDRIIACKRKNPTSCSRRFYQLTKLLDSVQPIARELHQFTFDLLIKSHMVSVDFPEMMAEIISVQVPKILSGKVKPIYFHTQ
The reader will find reported log10 EC50 values listed item by item below.
assay.metric: log10 EC50 (log10 of the value in nM)

compound: CCC1CCN(C=O)c2cc3nc(O)cc(C(F)(F)F)c3cc21 (stereo unspecified)
target.under.test: Androgen receptor (Homo sapiens, UniProt P10275)
log10 EC50: 2.14
--
compound: CC(C)C[C@H]1c2cc3c(C(F)(F)F)cc(=O)[nH]c3cc2NC[C@@H]1C (relative stereo)
target.under.test: Androgen receptor (Homo sapiens, UniProt P10275)
log10 EC50: 1.75
--
compound: CC1(C)CCNc2cc3[nH]c(=O)cc(C(F)(F)F)c3cc21
target.under.test: Androgen receptor (Homo sapiens, UniProt P10275)
log10 EC50: 1.83
--
compound: CC[C@H]1c2cc3c(C(F)(F)F)cc(=O)[nH]c3cc2NC[C@H]1C (relative stereo)
target.under.test: Androgen receptor (Homo sapiens, UniProt P10275)
log10 EC50: 0.85
--
compound: CCC1c2cc3c(C(F)(F)F)cc(=O)[nH]c3cc2NC[C@@H]1C (stereo partly specified)
target.under.test: Androgen receptor (Homo sapiens, UniProt P10275)
log10 EC50: 0.85
--
compound: Oc1cc(C(F)(F)F)c2cc3c(cc2n1)NC[C@@H]1CCCC[C@H]31
target.under.test: Androgen receptor (Homo sapiens, UniProt P10275)
log10 EC50: 0.48
--
compound: CC1CCNc2cc3nc(O)cc(C(F)(F)F)c3cc21 (stereo unspecified)
target.under.test: Androgen receptor (Homo sapiens, UniProt P10275)
log10 EC50: 1.18
--
compound: Oc1cc(C(F)(F)F)c2cc3c(cc2n1)NC[C@H]1CCCC[C@H]31
target.under.test: Androgen receptor (Homo sapiens, UniProt P10275)
log10 EC50: 0.30
--
compound: C[C@H]1CNc2cc3nc(O)cc(C(F)(F)F)c3cc2C1CCC(F)(F)F (stereo partly specified)
target.under.test: Androgen receptor (Homo sapiens, UniProt P10275)
log10 EC50: 1.11
